Values from PubChem BioAssay AID1508600

- assay.details: Components of the Cytosolic LPS Sensing Pathway: Gene Identification via Genome-wide siRNA Screen
- protocol.conditions: RAW264.7 macrophages, IL-1a HTRF, actives lie on both sides, screened at 100 nM (by protocol), cells primed 5 h with Pam3CSK4 first
Screen size: about 53,000 sequences; about 3,700 (7%) were called active.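 The calls were made as follows: active = gene knockdowns whose robust z-score for IL-1 alpha signal is at least 2 or at most -2, so actives lie on both sides; inactive = the rest.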 This excerpt belongs to a sample that is enriched for actives.
Choose the fitting class; nothing outside active, inactive is accepted.

Please review the following examples before continuing.
• GGCUGGAGAAGUAAUGAUATT against Sp100 = inactive
• GGAUCUCCCUCUAAAUAUUTT against Hsp90aa1 = inactive
• GGUGAUGCGCCUGAAGGAUTT against Ntng2 = inactive
• GGGAAGACAAGAACAACUUTT against Pitrm1 = inactive
• CCGUAUUUGGACUGAGCAATT against Chic2 = inactive

IN: Could you check what this test reported for GGGCUAUGCCUACUACACUTT against Fn3k ?
OUT: inactive

---

Please respond with reported z-score for every item in the list.
- assay.details: Components of the Cytosolic LPS Sensing Pathway: Gene Identification via Genome-wide siRNA Screen
- protocol.conditions: RAW264.7 macrophages, IL-1a HTRF, actives lie on both sides, screened at 100 nM (by protocol), cells primed 5 h with Pam3CSK4 first
Out of some 53,000 sequences screened, about 3,700 (7%) were called active. The full list was thinned out, with actives kept by preference.

// worked examples, z-score included
- GGCCUUGCACUUCAGUUUCTT against Mfsd4b1: -0.436 (inactive)
- GGGAUCAGAAAAGUUAACATT against Acaca: 0.785 (inactive)

// input: 6 sequences below; output: z-score for each
1. GGCGACGAAGUCACCUAUATT against Carhsp1
2. CGUGGAAUGAAGAUUGUCCTT against Hsd17b12
3. CCGAGGACUAUUUGAAACGTT against Mrtfa
4. GGCUCAGAUCAGAACUACGTT against Inpp4a
5. GAUUGGAACUUGUGGAUCUTT against Defb8
6. GGAAAGAGCUUUUUAUUGUTT against Zfp235

OUT:
1. -0.0404 (inactive)
2. 0.284 (inactive)
3. -1.46 (inactive)
4. -0.129 (inactive)
5. 0.424 (inactive)
6. 0.145 (inactive)

// input: 3 sequences below; output: z-score for each
1. GCCUCUGUCAAGUCUUGGATT against Ftl1
2. CCCUCUACUACUGCAUCGUTT against Xkr7
3. GGAGAUAAAGUCUUAUCACTT against Misp

OUT:
1. -2.17 (active)
2. 1.74 (inactive)
3. -2.05 (active)

IN: Fill in: z-score of GGUACCAUAUCUGUGAACATT against Nrxn3 is ___
OUT: -1.25 (inactive)

---

- assay.details: Components of the Cytosolic LPS Sensing Pathway: Gene Identification via Genome-wide siRNA Screen;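 also: robust z of the log signal after scaling to non-targeting control siRNA wells of the plate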
- protocol.conditions: RAW264.7 macrophages, IL-1a HTRF, actives lie on both sides, screened at 100 nM (by protocol), cells primed 5 h with Pam3CSK4 first
The campaign covered roughly 53,000 sequences. About 3,700 (7%) were called active.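 The calls were made as follows: active = gene knockdowns whose robust z-score for IL-1 alpha signal is at least 2 or at most -2, so actives lie on both sides; inactive = the rest.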 The sample as a whole holds a higher share of actives than the screen did.
Choose the fitting class; nothing outside active, inactive is accepted.

Please review the following examples before continuing.
- GCGGAUGAUCAAGAAUCGATT against Atf6b: inactive
- GGAUAUCAAGGGAUCAGACTT against Chchd4: inactive
- GGAUGUCUCAAAGUAAGAATT against Cd55b: inactive
- GCUACGUUUUUUACCUCCATT against Bak1: inactive
- GGAUGAGCAAGAAAUCCCUTT against Ccdc137: inactive
- CUCUGUACUUGGGCAGGAATT against Cyp2c65: active
- GGAAAAUCUUAGGAAGAUGTT against Elf4: inactive
- GGCACAUAGCCAUACCAGATT against Fbxw17: inactive
- GGCAGGAAUCUAUAUUAAUTT against Slc17a3: inactive
- CGAAGAUUAAUUUUGCUCATT against Lrrtm2: inactive

// next entry
IN: Could you check what this test reported for GGCAGUUCAAAAGACCACATT against Zcchc7 ?
OUT: active

---

- assay.details: Components of the Cytosolic LPS Sensing Pathway: Gene Identification via Genome-wide siRNA Screen;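 also: robust z of the log signal after scaling to non-targeting control siRNA wells of the plate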
- protocol.conditions: RAW264.7 macrophages, IL-1a HTRF, actives lie on both sides, screened at 100 nM (by protocol), cells primed 5 h with Pam3CSK4 first
The campaign covered roughly 53,000 sequences. About 3,700 (7%) were called active.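 How the source made its calls: active means gene knockdowns whose robust z-score for IL-1 alpha signal is at least 2 or at most -2, so actives lie on both sides; inactive means the rest.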 This is one part of a sample in which actives are shown more often than they occur.
Choose the fitting class; nothing outside t (active), f (inactive) is accepted.

- CCUACAAGCAGAGUACAAUTT against Myo10: f
- GGCUCUGGCCAUAUUUUGGTT against Olfr549: f
- GGAGGAGACUAAAGAAAAUTT against Myf6: f
- GGCAUCUCCCACAUUAGAGTT against Sell: f
- GGCCUUUACGUCUUCCUAGTT against Zdhhc12: f
- CCAAACCUAUUCUGAGAUGTT against Klrg2: f
- GGGCAAGUAUGGCUAUGUGTT against Pram1: f
- GGAAACAGAGCAAGGAAAATT against Gas7: f
- GGUUGUCAAGAAAUUACCCTT against Marchf10: t
- GGAAAAUCACUUCAUUCACTT against Ltk: f

IN: Could you check what this test reported for GGACCUUUAAAGCUAAGCUTT against Ccn5 ?
OUT: f

IN: Same question, GGCAUGAAUCAGUCUAUGGTT against Olfr1308 this time
OUT: f

IN: Same question, GGCUUGCAUCAAUAAAGAATT against Adam33 this time
OUT: f

IN: Same question, GGUUUGGCAGAAGUGCAUGTT against Npff this time
OUT: f

IN: Same question, GCGGUCACACCAAAAGUCATT against Olfr1466 this time
OUT: f

IN: Same question, GGUACUUCACAAUGGACAGTT against Zcchc9 this time
OUT: f

IN: Same question, GGAAAUGUUGAAUCUUGCUTT against Mfsd4a this time
OUT: f

---

- assay.details: Components of the Cytosolic LPS Sensing Pathway: Gene Identification via Genome-wide siRNA Screen;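 also: robust z of the log signal after scaling to non-targeting control siRNA wells of the plate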
- protocol.conditions: RAW264.7 macrophages, IL-1a HTRF, actives lie on both sides, screened at 100 nM (by protocol), cells primed 5 h with Pam3CSK4 first
About 3,700 (7%) of roughly 53,000 sequences were called active. Many of the other results were omitted from the sample, so actives are more common in it than they were.
assay.readout: z-score
Give bare numbers.

// worked examples, z-score included
* GCAGUCCAAAAAAUUCGGUTT against Stox2 | -2.15
* GGAGCAGAUGAGAUCCAAGTT against Cdc42se1 | -0.256
* GGGCAUAGAUUAGUCUUUATT against Ing2 | 1.01

// input: 5 sequences below; output: z-score for each
1. GAUGCUCUCUGCUCUGAGATT against C030016D13Rik
2. GAACACCCUGCCGACCAAATT against Tmsb10
3. GGAUUAUCAUGGUUUGAUCTT against Elp4
4. GGACGGCAGAAAGCAUUUATT against Olfr317
5. GGAAUUGAAACCUGAUGUUTT against Srfbp1

OUT:
1. -0.0555
2. -0.242
3. 0.938
4. 0.693
5. 0.239

// input: 4 sequences below; output: z-score for each
1. GGUGAAGCAUCAGUGACAATT against Ubxn4
2. GGAAAGACACAGAUAAUAATT against Arvcf
3. GCAAGACGGUGAUUGUAACTT against Pck2
4. GGAAUGCUUAGUGAAAUUUTT against Ahctf1

OUT:
1: 0.734; 2: -1.28; 3: -0.243; 4: 0.481

// input: 3 sequences below; output: z-score for each
1. GGUAGCUGUUUAGGACAAUTT against Arl6ip5
2. CCUACGACCUGAAGAUAGCTT against Dscc1
3. GGAUUAUGCAAGUUACAUUTT against Nsf

OUT:
1: 3.79; 2: -0.124; 3: -0.63

// input: 4 sequences below; output: z-score for each
1. GCUGUGAAGAAUCAGAUAGTT against Aatf
2. GCGGUGCCAAAGGUAUUAATT against Rad51ap1
3. GGCCAAGGUCAAUAACUCCTT against Rfc1
4. CCUGCUAAACCUGGACCAUTT against Hic1

OUT:
[-0.155, -0.0801, -0.755, 1.61]

---

- assay.details: Components of the Cytosolic LPS Sensing Pathway: Gene Identification via Genome-wide siRNA Screen;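 also: robust z of the log signal after scaling to non-targeting control siRNA wells of the plate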
- protocol.conditions: RAW264.7 macrophages, IL-1a HTRF, actives lie on both sides, screened at 100 nM (by protocol), cells primed 5 h with Pam3CSK4 first
In all, about 53,000 sequences went through this assay and about 3,700 (7%) were called active. This is one part of a sample in which actives are shown more often than they occur.
Label 1 (yes) when z-score is at or above 0.3; otherwise label 0 (no).

IN: // inclusive: z-score at least 0.3? input: GAAUUGUCUUACUUGGAAATT against Gimap4
OUT: 1 (yes)
